Collected MIC values appear next to each entry.
- Tested on: S. epidermidis ATCC14990
Note: unit µg/mL is implicit; provide only the numeric part.

Worked examples follow.
Molecule	MIC, µg/mL
CCCCO[C@H]1[C@H](C)O[C@@H](O[C@H]2[C@H](N(C)C)[C@@H](O)[C@H](O[C@H]3[C@@H](CC=O)C[C@@H](C)[C@@H](O)/C=C/C=C/C[C@@H](C)OC(=O)C[C@@H](OC(=O)CC)[C@@H]3OC)O[C@@H]2C)C[C@@]1(C)OC [(2)]	1.56
CCC(=O)O[C@@H]1CC(=O)O[C@H](C)C/C=C/C=C/[C@H](O)[C@H](C)C[C@H](CC=O)[C@H](O[C@@H]2O[C@H](C)[C@@H](O[C@H]3C[C@@](C)(O)[C@@H](OC(=O)CC)[C@H](C)O3)[C@H](N(C)C)[C@H]2O)[C@H]1OC [MDM, midecamycin A1, reference compound]	1.56
CCCCCO[C@H]1[C@H](C)O[C@@H](O[C@H]2[C@H](N(C)C)[C@@H](O)[C@H](O[C@H]3[C@@H](CC=O)C[C@@H](C)[C@@H](O)/C=C/C=C/C[C@@H](C)OC(=O)C[C@@H](O)[C@@H]3OC)O[C@@H]2C)C[C@@]1(C)OC [(11)]	0.39

Here is another molecule to look at.
Prompt: Param request: MIC | system S. epidermidis ATCC14990 | item CCC(=O)O[C@@H]1CC(=O)O[C@H](C)C/C=C/C=C/[C@H](O)[C@H](C)C[C@H](CC=O)[C@H](O[C@@H]2O[C@H](C)[C@@H](O[C@H]3C[C@@](C)(OC)[C@@H](OCCC(C)C)[C@H](C)O3)[C@H](N(C)C)[C@H]2O)[C@H]1OC [(3)]
Response: 1.56

====

Let's look at some molecules and their measured MIC.
- Test system: B. catarrhalis W-0506
The reply should be a number in µg/mL, with the unit left off.

Smiles Text	Readout Unit	MIC
CCCO[C@]1(C)C[C@H](O[C@H]2[C@H](N(C)C)[C@@H](O)[C@H](O[C@H]3[C@@H](CC=O)C[C@@H](C)[C@@H](O)/C=C/C=C/C[C@@H](C)OC(=O)C[C@@H](O)[C@@H]3OC)O[C@@H]2C)O[C@@H](C)[C@@H]1OCCC(C)C	µg/mL	0.78

Now turn to the next molecule.
Prompt: Provide one value: measured MIC of CCO[C@]1(C)C[C@H](O[C@H]2[C@H](N(C)C)[C@@H](O)[C@H](O[C@H]3[C@@H](CC=O)C[C@@H](C)[C@@H](O)/C=C/C=C/C[C@@H](C)OC(=O)C[C@@H](O)[C@@H]3OC)O[C@@H]2C)O[C@@H](C)[C@@H]1OCCC(C)C
Response: 0.78

====

- Test system: S. Pneumoniae Type 1
- Measurement Protocol: MIC, agar plate dilution method
- Format: cell-based
- Test Conditions: Streptococcus pneumoniae; S. Pneumoniae Type 1; 37° C., 20 hours; read-out: Antimicrobial activity (MIC)
Property Label: MIC

A selection of reference data follows.
Compound	MIC
CCCO[C@H]1[C@H](C)O[C@@H](O[C@H]2[C@H](N(C)C)[C@@H](O)[C@H](O[C@H]3[C@@H](CC=O)C[C@@H](C)[C@@H](O)/C=C/C=C/C[C@@H](C)OC(=O)C[C@@H](O)[C@@H]3OC)O[C@@H]2C)C[C@@]1(C)OC [(9)]	0.2 µg/mL
CO[C@@H]1[C@@H](O[C@@H]2O[C@H](C)[C@@H](O[C@H]3C[C@@](C)(OC)[C@@H](OCCC(C)C)[C@H](C)O3)[C@H](N(C)C)[C@H]2O)[C@@H](CC=O)C[C@@H](C)[C@@H](O)/C=C/C=C/C[C@@H](C)OC(=O)C[C@H]1O [(12)]	0.1 µg/mL
CO[C@@H]1[C@@H](O[C@@H]2O[C@H](C)[C@@H](O[C@H]3C[C@@](C)(OC)[C@@H](OCc4ccccc4)[C@H](C)O3)[C@H](N(C)C)[C@H]2O)[C@@H](CC=O)C[C@@H](C)[C@@H](O)/C=C/C=C/C[C@@H](C)OC(=O)C[C@H]1O [(16)]	0.1 µg/mL

// moving on: another record for MIC
Prompt: Please respond with reported MIC (system S. Pneumoniae Type 1) for CCC(=O)O[C@@H]1CC(=O)O[C@H](C)C/C=C/C=C/[C@H](O)[C@H](C)C[C@H](CC=O)[C@H](O[C@@H]2O[C@H](C)[C@@H](O[C@H]3C[C@@](C)(O)[C@@H](OC(=O)CC)[C@H](C)O3)[C@H](N(C)C)[C@H]2O)[C@H]1OC [MDM, midecamycin A1, reference compound] .
Response: 0.39 µg/mL

====

Reported MIC for target or system S. aureus MS15027, by entry.
Expressed in µg/mL, but write only the number.

Smiles Text	Value Observed
CCC(=O)O[C@@H]1CC(=O)O[C@H](C)C/C=C/C=C/[C@H](O)[C@H](C)C[C@H](CC=O)[C@H](O[C@@H]2O[C@H](C)[C@@H](O[C@H]3C[C@@](C)(OC)[C@@H](OCCC(C)C)[C@H](C)O3)[C@H](N(C)C)[C@H]2O)[C@H]1OC	0.78

Prompt: Note MIC for the compound shown: CCCCO[C@H]1[C@H](C)O[C@@H](O[C@H]2[C@H](N(C)C)[C@@H](O)[C@H](O[C@H]3[C@@H](CC=O)C[C@@H](C)[C@@H](O)/C=C/C=C/C[C@@H](C)OC(=O)C[C@@H](OC(=O)CC)[C@@H]3OC)O[C@@H]2C)C[C@@]1(C)OC
Response: 0.78

====

- Test system: B. catarrhalis W-0506
// reported MIC for each item listed
Answer format: value, then unit.

Compound	MIC
CCC(=O)O[C@@H]1CC(=O)O[C@H](C)C/C=C/C=C/[C@H](O)[C@H](C)C[C@H](CC=O)[C@H](O[C@@H]2O[C@H](C)[C@@H](O[C@H]3C[C@@](C)(O)[C@@H](OC(=O)CC)[C@H](C)O3)[C@H](N(C)C)[C@H]2O)[C@H]1OC [MDM, midecamycin A1, reference compound]	1.56 µg/mL
CCCCCCO[C@H]1[C@H](C)O[C@@H](O[C@H]2[C@H](N(C)C)[C@@H](O)[C@H](O[C@H]3[C@@H](CC=O)C[C@@H](C)[C@@H](O)/C=C/C=C/C[C@@H](C)OC(=O)C[C@@H](OC(=O)CC)[C@@H]3OC)O[C@@H]2C)C[C@@]1(C)OC [(5)]	1.56 µg/mL
CO[C@@H]1[C@@H](O[C@@H]2O[C@H](C)[C@@H](O[C@H]3C[C@@](C)(OC)[C@@H](OCc4ccccc4)[C@H](C)O3)[C@H](N(C)C)[C@H]2O)[C@@H](CC=O)C[C@@H](C)[C@@H](O)/C=C/C=C/C[C@@H](C)OC(=O)C[C@H]1O [(16)]	0.78 µg/mL

As a next step, examine the compound that follows.
Prompt: GET MIC where system = B. catarrhalis W-0506 and item = CCCO[C@H]1[C@H](C)O[C@@H](O[C@H]2[C@H](N(C)C)[C@@H](O)[C@H](O[C@H]3[C@@H](CC=O)C[C@@H](C)[C@@H](O)/C=C/C=C/C[C@@H](C)OC(=O)C[C@@H](O)[C@@H]3OC)O[C@@H]2C)C[C@@]1(C)OC [(9)]
Response: 3.13 µg/mL

====

Entries with reported MIC on S. Pyogenes Cook
The answer should read as a number with its unit following.

Compound	MIC
CCO[C@]1(C)C[C@H](O[C@H]2[C@H](N(C)C)[C@@H](O)[C@H](O[C@H]3[C@@H](CC=O)C[C@@H](C)[C@@H](O)/C=C/C=C/C[C@@H](C)OC(=O)C[C@@H](O)[C@@H]3OC)O[C@@H]2C)O[C@@H](C)[C@@H]1OCCC(C)C [(14)]	0.1 µg/mL

Lab note: next compound to report on.
Prompt: Write down measured MIC (S. Pyogenes Cook) for this compound. CCCCCO[C@H]1[C@H](C)O[C@@H](O[C@H]2[C@H](N(C)C)[C@@H](O)[C@H](O[C@H]3[C@@H](CC=O)C[C@@H](C)[C@@H](O)/C=C/C=C/C[C@@H](C)OC(=O)C[C@@H](O)[C@@H]3OC)O[C@@H]2C)C[C@@]1(C)OC [(11)]
Response: 0.1 µg/mL

====

Please consider the recorded MIC for B. catarrhalis W-0506 in what follows.
Provide the measurement as a number trailed by its unit.

Compound	MIC
CCCCO[C@H]1[C@H](C)O[C@@H](O[C@H]2[C@H](N(C)C)[C@@H](O)[C@H](O[C@H]3[C@@H](CC=O)C[C@@H](C)[C@@H](O)/C=C/C=C/C[C@@H](C)OC(=O)C[C@@H](OC(=O)CC)[C@@H]3OC)O[C@@H]2C)C[C@@]1(C)OC	1.56 µg/mL

Now let's try a different one.
Prompt: Under B. catarrhalis W-0506, report MIC for CCC(=O)O[C@H]1[C@H](C)O[C@@H](O[C@H]2[C@H](N(C)C)[C@@H](O)[C@H](O[C@H]3[C@@H](CC=O)C[C@@H](C)[C@@H](O)/C=C/C=C/C[C@@H](C)OC(=O)C[C@@H](O)[C@@H]3OC)O[C@@H]2C)C[C@@]1(C)O [LM-A7, leucomycin A7, reference compound]
Response: 1.56 µg/mL
